Below are MIC values recorded for E. coli 377.
Note: unit µg/mL is implicit; provide only the numeric part.

Study these solved cases before continuing.
>  <molecule>
CO[C@@]1(NC(=O)C(C(=O)O)c2ccsc2)C(=O)N2C(C(=O)O)=C(CSc3nncs3)CO[C@@H]21 (stereo partly shown) [Compound (4)]

>  <targetOrTestSystem>
E. coli 377

>  <MIC, µg/mL>
0.39

$$$$
>  <molecule>
CO[C@@]1(NC(=O)C(C(=O)O)c2ccsc2)C(=O)N2C(C(=O)O)=C(CSc3nnc(C)s3)CO[C@@H]21 (stereo partly shown) [Compound (3)]

>  <targetOrTestSystem>
E. coli 377

>  <MIC, µg/mL>
0.78

$$$$
>  <molecule>
CO[C@@]1(NC(=O)C(C(=O)O)c2ccc(O)cc2)C(=O)N2C(C(=O)O)=C(CSc3nnc(C)s3)CO[C@@H]21 (stereo partly shown) [Compound (1)]

>  <targetOrTestSystem>
E. coli 377

>  <MIC, µg/mL>
1.56

$$$$

Read the next record carefully.
Reported MIC (E. coli 377) for entry CO[C@@]1(NC(=O)C(C(=O)O)c2ccc(O)cc2)C(=O)N2C(C(=O)O)=C(CSc3nncs3)CO[C@@H]21 (stereo partly shown) [Compound (2)] is 0.78

---

# Tested on: P. morganii No. 9
metric: MIC (mg/L)
Your answer is read as mg/L, so omit the unit and give the number.

For this compound ( CO[C@@]1(NC(=O)C(C(=O)O)c2ccsc2)C(=O)N2C(C(=O)O)=C(CSc3nnc(C)s3)CO[C@@H]21 (stereo partly shown) [Compound (3)] ), measured MIC is 0.2

Field MIC (entry CO[C@@]1(NC(=O)C(C(=O)O)c2ccc(O)cc2)C(=O)N2C(C(=O)O)=C(CSc3nncs3)CO[C@@H]21 (stereo partly shown) [Compound (2)] ) reads 0.78

// recorded MIC for CO[C@@]1(NC(=O)C(C(=O)O)c2ccc(O)cc2)C(=O)N2C(C(=O)O)=C(CSc3nnc(C)s3)CO[C@@H]21 (stereo partly shown) [Compound (1)] : 0.78

Per the record, CO[C@@]1(NC(=O)C(C(=O)O)c2ccsc2)C(=O)N2C(C(=O)O)=C(CSc3nncs3)CO[C@@H]21 (stereo partly shown) [Compound (4)] has MIC of 0.2

---

# System: E. cloacae 233
Listed below: MIC values for each entry.
Number in µg/mL, nothing else.

Examples from the recorded data:
>  <compound>
CO[C@@]1(NC(=O)C(C(=O)O)c2ccsc2)C(=O)N2C(C(=O)O)=C(CSc3nnc(C)s3)CO[C@@H]21 (stereo partly shown) [Compound (3)]

>  <targetOrTestSystem>
E. cloacae 233

>  <recordedNumber>
12.5

$$$$
>  <compound>
CO[C@@]1(NC(=O)C(C(=O)O)c2ccsc2)C(=O)N2C(C(=O)O)=C(CSc3nncs3)CO[C@@H]21 (stereo partly shown) [Compound (4)]

>  <targetOrTestSystem>
E. cloacae 233

>  <recordedNumber>
6.25

$$$$
>  <compound>
CO[C@@]1(NC(=O)C(C(=O)O)c2ccc(O)cc2)C(=O)N2C(C(=O)O)=C(CSc3nnc(C)s3)CO[C@@H]21 (stereo partly shown) [Compound (1)]

>  <targetOrTestSystem>
E. cloacae 233

>  <recordedNumber>
1.6

$$$$

Kindly review the next compound as well.
Tested system E. cloacae 233; MIC recorded for CO[C@@]1(NC(=O)C(C(=O)O)c2ccc(O)cc2)C(=O)N2C(C(=O)O)=C(CSc3nncs3)CO[C@@H]21 (stereo partly shown) [Compound (2)] was 6.25
